system_name: Receptor tyrosine-protein kinase erbB-2 (Homo sapiens)
Sequence (P04626 whole entry): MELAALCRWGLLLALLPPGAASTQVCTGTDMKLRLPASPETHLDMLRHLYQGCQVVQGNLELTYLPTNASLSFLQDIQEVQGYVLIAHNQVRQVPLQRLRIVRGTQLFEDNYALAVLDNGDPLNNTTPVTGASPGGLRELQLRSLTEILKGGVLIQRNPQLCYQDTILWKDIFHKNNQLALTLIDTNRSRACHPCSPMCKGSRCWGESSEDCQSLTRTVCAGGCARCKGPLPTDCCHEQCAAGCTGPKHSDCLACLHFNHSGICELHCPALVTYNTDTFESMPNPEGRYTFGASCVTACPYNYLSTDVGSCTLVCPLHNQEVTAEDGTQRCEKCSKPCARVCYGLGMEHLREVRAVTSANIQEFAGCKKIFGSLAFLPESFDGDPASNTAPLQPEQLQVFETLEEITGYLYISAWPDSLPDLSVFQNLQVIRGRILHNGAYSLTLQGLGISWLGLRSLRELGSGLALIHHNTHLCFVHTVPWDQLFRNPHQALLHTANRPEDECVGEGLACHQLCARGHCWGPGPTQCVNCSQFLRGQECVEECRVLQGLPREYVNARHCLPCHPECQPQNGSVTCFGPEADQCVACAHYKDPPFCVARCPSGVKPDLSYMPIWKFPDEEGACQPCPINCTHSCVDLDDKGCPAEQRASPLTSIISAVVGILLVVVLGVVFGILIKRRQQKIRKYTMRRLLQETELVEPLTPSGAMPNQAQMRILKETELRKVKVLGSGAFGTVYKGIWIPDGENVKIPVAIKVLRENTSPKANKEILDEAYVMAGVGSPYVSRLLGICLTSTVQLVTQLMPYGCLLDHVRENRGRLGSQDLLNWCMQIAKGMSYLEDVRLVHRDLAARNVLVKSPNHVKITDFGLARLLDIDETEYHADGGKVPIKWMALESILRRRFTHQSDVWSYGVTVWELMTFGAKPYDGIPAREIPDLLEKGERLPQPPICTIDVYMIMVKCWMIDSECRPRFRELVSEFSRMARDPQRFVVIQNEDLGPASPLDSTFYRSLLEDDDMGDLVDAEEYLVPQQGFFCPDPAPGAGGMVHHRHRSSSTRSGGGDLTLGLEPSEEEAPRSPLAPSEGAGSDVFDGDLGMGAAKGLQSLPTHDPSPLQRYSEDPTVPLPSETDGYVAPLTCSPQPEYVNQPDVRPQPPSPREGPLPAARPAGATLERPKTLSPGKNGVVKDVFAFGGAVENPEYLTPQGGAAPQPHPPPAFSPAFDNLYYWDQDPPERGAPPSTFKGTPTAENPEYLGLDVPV
test_description: Inhibitory activity tested against protein kinase HER-2
measured_property: IC50 (µM)

Worked examples, 4 compounds total:
COc1cc(C=C(C#N)C#N)cc(CSc2ccccc2C(=O)O)c1O    10
COc1cc(C=C(C#N)C#N)cc(CS(=O)(=O)c2ccc(C)cc2)c1O    17.4
CC(C)(C)Oc1cc(/C=C(\C#N)C(=N)S)cc(C(C)(C)C)c1O    1
COc1cc(C=C(C#N)C#N)cc(C)c1O    112

A. COc1cc(/C=C(\C#N)C(N)=O)cc(CSc2ccccc2)c1O
B. COc1cc(/C=C(\C#N)C(N)=O)cc(CSc2nc3ccccc3[nH]2)c1O
Enquiry: Between A and B , whose recorded IC50 is greater? I would appreciate it if you answered with the label of your choice.
Return: B

---

system_name: Receptor tyrosine-protein kinase erbB-2 (Homo sapiens)
test_description: Inhibition of HER-2 ErbB2 receptor
measured_property: IC50 (µM)
Please state the figure in µM; there is no need to write the unit.

Enquiry: Specify measured IC50 for `COc1cc(/C=C(\C#N)C(N)=O)cc(SCCC(=O)O)c1O` .
Return: 91.2

---

system_name: UniProt:P00533
Sequence (P00533 whole entry): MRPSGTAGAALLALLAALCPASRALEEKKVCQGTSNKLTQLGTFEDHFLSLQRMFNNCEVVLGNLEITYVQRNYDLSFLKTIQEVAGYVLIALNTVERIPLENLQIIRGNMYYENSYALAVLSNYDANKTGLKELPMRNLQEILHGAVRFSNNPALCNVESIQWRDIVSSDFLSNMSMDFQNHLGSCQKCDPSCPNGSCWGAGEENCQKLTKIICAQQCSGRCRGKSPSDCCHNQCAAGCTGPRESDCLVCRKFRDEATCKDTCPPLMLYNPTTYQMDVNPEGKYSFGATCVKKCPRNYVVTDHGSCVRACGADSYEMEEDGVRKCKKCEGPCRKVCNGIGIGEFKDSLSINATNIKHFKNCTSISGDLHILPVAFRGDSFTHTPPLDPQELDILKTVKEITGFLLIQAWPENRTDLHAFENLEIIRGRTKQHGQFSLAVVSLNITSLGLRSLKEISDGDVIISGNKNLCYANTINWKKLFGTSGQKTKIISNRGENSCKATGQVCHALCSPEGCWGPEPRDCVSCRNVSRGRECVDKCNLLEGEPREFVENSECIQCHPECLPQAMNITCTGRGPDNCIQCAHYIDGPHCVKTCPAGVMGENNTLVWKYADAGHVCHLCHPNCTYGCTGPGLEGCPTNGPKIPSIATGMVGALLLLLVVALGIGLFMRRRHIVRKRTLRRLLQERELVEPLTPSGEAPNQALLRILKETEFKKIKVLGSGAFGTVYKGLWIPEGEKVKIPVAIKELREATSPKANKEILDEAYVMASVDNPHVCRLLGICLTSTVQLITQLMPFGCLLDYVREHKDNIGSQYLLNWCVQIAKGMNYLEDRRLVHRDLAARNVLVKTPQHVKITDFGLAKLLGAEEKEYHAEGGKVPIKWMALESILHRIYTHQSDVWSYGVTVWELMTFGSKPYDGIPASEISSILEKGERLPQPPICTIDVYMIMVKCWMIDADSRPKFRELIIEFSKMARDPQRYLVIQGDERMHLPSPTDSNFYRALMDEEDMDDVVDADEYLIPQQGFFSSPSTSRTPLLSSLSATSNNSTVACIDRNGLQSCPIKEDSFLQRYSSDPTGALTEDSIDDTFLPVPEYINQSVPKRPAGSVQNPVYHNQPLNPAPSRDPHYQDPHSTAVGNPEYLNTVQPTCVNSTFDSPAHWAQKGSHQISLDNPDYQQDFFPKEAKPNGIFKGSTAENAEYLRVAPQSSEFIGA
test_description: Inhibitory activity against epidermal growth factor receptor (EGFR)
pIC50: −log10 of the molar value.
measured_property: pIC50

COc1cc(/C=C(/C#N)C(N)=O)cc(CSCc2ccc(Cl)cc2)c1O    4.80

1. COc1cc(/C=C(\C#N)C(N)=O)cc(SCCCC(=O)O)c1O
2. CC(C)(C)Oc1cc(/C=C(\C#N)C(=N)S)cc(C(C)(C)C)c1O
3. COc1cc(/C=C(\C#N)C(N)=O)cc(CSc2cccc3ccccc23)c1O
Enquiry: Place the items in sequence of falling pIC50. Use the labels to give the ranking in the order requested.
Return: 3, 1, 2
(3: 5.77, 1: 4.32, 2: 3.30)

---

system_name: Receptor tyrosine-protein kinase erbB-2 (Homo sapiens)
test_description: Inhibitory activity tested against protein kinase HER-2
pIC50: −log10 of the molar value.
measured_property: pIC50

Worked examples, 5 compounds total:
COc1cc(/C=C(\C#N)C(N)=O)cc(CSc2ccccc2C(=O)O)c1O    6.35
COc1cc(/C=C(/C#N)C(N)=O)cc(CSCc2ccc(Cl)cc2)c1O    5.70
CCOC(=O)C(Cc1ccccc1)NC(=O)/C(C#N)=C/c1ccc(O)c(O)c1 (stereo unspecified)    3.48
COc1cc(/C=C(\C#N)C(N)=O)cc(CSCc2ccccc2Cl)c1O    6.60
Cc1cc(C=C(C#N)C#N)cc(O)c1O    4.23

P. COc1ccc(NC(=O)/C(C#N)=C/c2ccc(O)c(O)c2)c(OC)c1
Q. N#C/C(=C\c1ccc(O)c(O)c1)C(=O)c1ccc(F)cc1
Enquiry: Select the item whose pIC50 value is smaller, choosing between P and Q . I would appreciate it if you answered with the label of your choice.
Return: P
(P: 3.78, Q: 4.89)

1. N#C/C(=C\c1ccc(O)c(O)c1)C(=O)c1ccc(O)c(O)c1
2. COc1cc(C=C(C#N)C#N)cc(CSc2ccccc2)c1O
Enquiry: Select the item whose pIC50 value is smaller, choosing between 1 and 2 . I would appreciate it if you answered with the label of your choice.
Return: 1
